The reported numbers originate from the supplement of paper PMC9663587.

System: CAMA1
Assay: area over the GR curve, 72 h; higher = more effect;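 further: Dye Drop or Deep Dye Drop imaging of viable cells in 384-well plates (Hoechst nuclei, LIVE/DEAD dye), nine half-log doses, GR normalized to DMSO controls and time-zero plates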
PROPERTY NAME: area over the GR curve (GR)

> print(dat)
                                   compound           property.name   result
1  Cc1nn(C)c(COc2ccc(N3CCN(S(=O)(=O)N(C)C)CC3)cc2)c1-c1cccc2c(CCCOc3cccc4ccccc34)c(C(=O)O)n(CCN3CCOCC3)c12 (max 10 µM)  area over the GR curve   0.0026
2  CC(C)n1nc(-c2ccc3oc(N)nc3c2)c2c(N)ncnc21 [INK128/MLN0128] (max 3.162 µM)  area over the GR curve     0.64
3  CCNC(=O)c1noc(-c2cc(C(C)C)c(O)cc2O)c1-c1ccc(CN2CCOCC2)cc1 [Luminespib/NVP-AUY922] (max 1 µM)  area over the GR curve    0.535
4  CN(C)C/C=C/C(=O)Nc1ccc(C(=O)N2CCC[C@@H](Nc3ncc(Cl)c(-c4c[nH]c5ccccc45)n3)C2)cc1 [THZ531] (max 1 µM)  area over the GR curve    0.241
5  O=C(c1cc(Cc2n[nH]c(=O)c3ccccc23)ccc1F)N1CCN(C(=O)C2CC2)CC1 [Olaparib/AZD2281] (max 10 µM)  area over the GR curve   0.0527
6  COc1cc(N2CCN(C)CC2)ccc1Nc1ncc2c(n1)N(C)c1ccccc1C(=O)N2CC(F)(F)F  area over the GR curve  -0.0223
